System: H460 cells
experimental_protocol: Half toxic concentration in the antiviral assay host cells
Type: cell-based
Exercise: for every item that follows, state its recorded TC50.
The figure you give is taken to be in µg/mL; do not add the unit.

Tell us which TC50 value is on record for CC[C@H](C)C[C@@H](C)/C=C(\C)[C@@H]1O[C@H](c2c(O)c([C@@]3(O)CCC(=O)C[C@@H]3O)cn(C)c2=O)CC[C@H]1C
23.09

Tell us which TC50 value is on record for CC[C@H](C)C[C@@H](C)/C=C(\C)[C@@H]1O[C@H](c2c3c(cn(C)c2=O)[C@@]2(OC)CCC(=O)C[C@@H]2O3)CC[C@H]1C
11.55

Tell us which TC50 value is on record for NC(=O)c1ncn([C@@H]2O[C@H](CO)[C@@H](O)[C@H]2O)n1 [Ribavirin, ribavirin, reference compound]
100

Tell us which TC50 value is on record for CC[C@H](C)C[C@@H](C)/C=C(\C)[C@@H]1O[C@H](c2c3c(cn(C)c2=O)[C@@]2(O)CCC(=O)C[C@@H]2O3)CC[C@H]1C
11.55
